experiment: growth inhibition of CRL1545 osteosarcoma cells, cell-based, cisplatin and BGB IC20 combos (AID 1671464); details: measured here: with BGB IC20 combination, at 0.5 µM, stronger effect = higher value;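 also: cells exposed to compound for 96 hours before readout; 0% = vehicle DMSO and 100% = high DMSO killing control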
Listing of recorded inhibition by entry.
assay.readout: inhibition (%)

NC(Cc1ccc(N(CCCl)CCCl)cc1)C(=O)O (centres undefined)    -14.9
O=C(O)CCCc1ccc(N(CCCl)CCCl)cc1    -15.9
COc1cc(C2c3cc4c(cc3C(O)C3COC(=O)C23)OCO4)cc(OC)c1OC (centres undefined)    70.7
CN(C)NC(=O)CCC(=O)O    -20
CC1(C)C(C(=O)Nc2ccc(S(=O)(=O)c3ccc(NC(=O)C4C(C)(C)C4(C)C)cc3)cc2)C1(C)C    -61.8
O=c1[nH]c(=O)n(C2OC(CO)C(O)C2O)cc1F (centres undefined)    77.3
Cc1c2ccncc2c(C)c2c1[nH]c1ccccc12    -33.3
Cn1c(COP(=O)(NCCBr)NCCBr)cnc1[N+](=O)[O-]    -10
CCC1(c2ccccc2)C(=O)NC(=O)NC1=O    -11.8

###

test system: Aerobactin synthetase IucA (Klebsiella pneumoniae hvKP1); test: Biochemical IucA enzyme inhibition primary screen of the Spectrum library (AID 1346200); conditions: malachite green pyrophosphate, A620, at 8 µM, stronger effect = lower value;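 also: 100% = wells without compound and 0% = wells lacking enzyme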
A collection of molecules and their measured activity remaining
assay.readout: activity remaining (%)

CN[C@@H]1[C@@H](O)C(OC2[C@@H](N)C[C@@H](N)[C@H](O[C@H]3O[C@H](C(C)O)[C@@H](O)[C@H](O)[C@H]3N)[C@H]2O)OC[C@]1(C)O (stereo not given in full)    111
COc1ccc(-c2cc(=O)c3c(OC)c(OC)c(OC)c(OC)c3o2)cc1    121
COc1cc(S(C)=O)ccc1-c1nc2ncccc2[nH]1 (stereo not given)    108
Cc1c(C)c2c(c(C)c1O)CCC(C)(CCCC(C)CCCC(C)CCCC(C)C)O2 (stereo not given)    105
Cc1ccc(Cl)c(Nc2ccccc2C(=O)O)c1Cl    93.4

###

assay: inhibitors of polyQ protein aggregation (AID 1604); conditions: polyglutamine-induced protein aggregation inhibition assay; stronger effect = higher value; tested at 2.5 µM
assay.readout: inhibition of aggregation

CN1C(=O)C(O)N=C(c2ccccc2)c2cc(Cl)ccc21 (stereo not given)    8.84%
C/C=C(/C)C(=O)O[C@H]1CC[C@@]2(C)[C@@H]3CC[C@H]4[C@]5(O)C[C@H](O)[C@@]6(O)[C@@H](CN7C[C@@H](C)CC[C@H]7[C@@]6(C)O)[C@]5(O)C[C@@]42O[C@]13O    73.8%
CC[n+]1c(-c2ccccc2)c2cc(N)ccc2c2ccc(N)cc21    47.5%
CNC(C)(C)Cc1ccccc1    68.2%
COc1ccc(C[C@H]2NC[C@H](O)[C@H]2OC(C)=O)cc1    100%
O=C(O)CCCc1ccc(N(CCCl)CCCl)cc1    81.4%
CC(CCc1ccccc1)NC(C)C(O)c1ccc(O)cc1 (stereo not given)    63.6%
CCCCCc1cc(O)c2c(c1)OC(C)(C)C1CCC(C)=CC21 (stereo not given)    34.7%
CN(C)[C@@H]1C(=O)C(C(N)=O)=C(O)[C@@]2(O)C(=O)C3=C(O)c4c(O)cccc4[C@@](C)(O)[C@H]3[C@H](O)[C@@H]12    39.4%
N#C/C(=C\c1ccc(O)cc1)C(=O)O    -4.76%

###

target: 6-phosphogluconate dehydrogenase, decarboxylating (Homo sapiens) (UniProt P52209); assay: 6PGD enzyme inhibitors, primary screen, biochemical, human, recombinant enzyme, NADPH absorbance (AID 1159550); details: recombinant 6PGD, NADPH absorbance 341 nm; at 10 µM; stronger effect = higher value
Sequence (P52209 whole entry, looked up): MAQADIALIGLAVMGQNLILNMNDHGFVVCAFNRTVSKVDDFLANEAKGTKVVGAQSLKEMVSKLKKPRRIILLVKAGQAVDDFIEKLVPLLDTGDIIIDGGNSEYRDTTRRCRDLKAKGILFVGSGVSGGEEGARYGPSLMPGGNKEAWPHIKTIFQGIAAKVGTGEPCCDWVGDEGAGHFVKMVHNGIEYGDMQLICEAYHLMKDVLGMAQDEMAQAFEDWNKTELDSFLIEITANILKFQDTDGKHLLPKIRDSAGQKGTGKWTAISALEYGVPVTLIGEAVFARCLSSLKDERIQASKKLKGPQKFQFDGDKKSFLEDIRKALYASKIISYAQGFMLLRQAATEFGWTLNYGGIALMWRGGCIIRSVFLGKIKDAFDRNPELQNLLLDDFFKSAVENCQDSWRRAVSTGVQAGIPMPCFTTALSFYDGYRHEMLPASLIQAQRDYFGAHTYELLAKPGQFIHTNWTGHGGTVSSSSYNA
Parameter threshold = -10%. Response is Met when inhibition meets or exceeds it, else Not met.

CN(C)[C@@H]1C(=O)C(C(N)=O)=C(O)[C@@]2(O)C(=O)C3=C(O)c4c(O)ccc(Cl)c4[C@@](C)(O)[C@H]3C[C@@H]12    Not met
O=C(O)COc1cc(Cl)c(Cl)cc1Cl    Met
CCC(=O)Nc1ccc(Cl)c(Cl)c1    Not met
CC(=O)Oc1ccc(/C=C/c2cc(OC(C)=O)cc(OC(C)=O)c2)cc1    Met
Clc1ccc(COC(Cn2ccnc2)c2ccc(Cl)cc2Cl)c(Cl)c1 (stereo unspecified)    Not met
CCNc1nc(Cl)nc(NC(C)C)n1    Met
CC1(C)C(O)CC(O)C2(C)C1CC(O)C1(C)C2CCC2(C)C(c3ccoc3)OC(=O)C3OC321 (stereo unspecified)    Met
CNC(=O)CSP(=S)(OC)OC    Not met
C[C@]12C=CC(=O)C=C1CC[C@@H]1[C@@H]2CC[C@]2(C)C(=O)CC[C@@H]12    Met
CCOP(=S)(OCC)SCn1c(=O)oc2cc(Cl)ccc21    Not met

###

test: differential killing of epithelial or mesenchymal cells, primary screen, imaging, PC-3E GFP, TEM4-18 mCherry, co-culture (AID 1345086); settings: imaging cell counts, at 1 µM, actives lie on both sides;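 also: normalised mesenchymal count divided by normalised epithelial count so high means epithelial killing; cells exposed to compound for 72 h before imaging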
red/green cell ratio (normalised) by entry:
assay.readout: red/green cell ratio (normalised)

CCN(C(C)=O)c1cccc(-c2ccnc3c(C#N)cnn23)c1    1.11
Clc1ccc(C(OCCN2CCCCC2)c2ccccc2)cc1 (stereo unspecified)    0.83
NP(N)(=O)NC(=O)c1ccc(F)cc1    0.99
NCCc1cc(O)c(O)cc1O    1.14
Clc1ccc(COC(Cn2ccnc2)c2ccc(Cl)cc2Cl)c(Cl)c1 (stereo unspecified)    1.04
C[C@]12CCC3C(CC[C@H]4C[C@H](O)CC[C@]34C)C1CCC2=O (stereo partly specified)    1.16
CC1=CC(=O)c2c(O)cccc2C1=O    0.13
CC(=O)OC1CCC23C(=O)OC45CCC(C6=CC(=O)OC6)C4(C)CCC2C5CCC3(O)C1 (stereo unspecified)    0.32
O=[N+]([O-])c1cc([As](=O)(O)O)ccc1O    1.34
C=C(C)[C@H]1Cc2c(ccc3c2O[C@@H]2COc4cc(OC)c(OC)cc4[C@@H]2C3=O)O1    1.19
C[C@H]1C[C@@H](O)[C@]2(O)[C@@]13CC(=O)OC[C@@]2(C)[C@](C)(O)C(=O)C3    1.18

###

tested on: Aerobactin synthetase IucA (Klebsiella pneumoniae hvKP1); assay: Biochemical IucA enzyme inhibition primary screen of the Spectrum library (AID 1346200); details: malachite green pyrophosphate, A620, at 8 µM, stronger effect = lower value;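 also: 100% = wells without compound and 0% = wells lacking enzyme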
Each entry below lists one item and its recorded activity remaining value.
assay.readout: activity remaining (%)

C[C@H]1C(=O)CCC2[C@]3(C)CC[C@@]4(C)C5CC(C)(C)CC[C@]5(C)CC[C@]4(C)C3CC[C@@]21C (stereo partly specified)    105
CC(CCc1ccccc1)NC(C)C(O)c1ccc(O)cc1 (stereo unspecified)    82.9
O=c1[nH]c2cc(Cl)c(Cl)cc2[nH]c1=O    121
Cc1cn([C@H]2C[C@H](N=[N+]=[N-])[C@@H](CO)O2)c(=O)[nH]c1=O    114
CCCc1cc(C(N)=S)ccn1    110
C/C=C(/C)C(=O)O[C@H]1CC[C@@]2(C)[C@@H]3CC[C@H]4[C@]5(O)C[C@H](O)[C@@]6(O)[C@@H](CN7C[C@@H](C)CC[C@H]7[C@@]6(C)O)[C@]5(O)C[C@@]42O[C@]13O    98.9

###

assay: ovarian cancer cell viability with rucaparib, profiling panel, oncology-focused library, rucaparib conditional (AID 1508598); details: patient-derived ovarian cancer cells, CellTiter-Glo viability, 144 h; at 0.000305 µM; OCI-P5x cells; without rucaparib
Calls of active or inactive are those of the source.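 The calls were made as follows: active = normalized viability below 100% at a tested concentration; inactive = the rest.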
Possible outcomes: true (active), false (inactive)

Cn1cc(C2=C(c3cn(C4CCN(Cc5ccccn5)CC4)c4ccccc34)C(=O)NC2=O)c2ccccc21    false
C/C(=C\c1csc(C)n1)[C@H]1C[C@@H]2O[C@]2(C)CCC[C@H](C)[C@H](O)[C@@H](C)C(=O)C(C)(C)[C@H](O)CC(=O)O1    true
C/C(=C\c1csc(C)n1)[C@H]1C[C@@H]2O[C@@H]2CCC[C@H](C)[C@H](O)[C@@H](C)C(=O)C(C)(C)[C@H](O)CC(=O)O1    true
O=S(=O)(CC1CS1)c1ccc(Oc2ccccc2)cc1 (stereo not given)    true
Cc1c(N)nc([C@H](CC(N)=O)NC[C@@H](N)C(N)=O)nc1C(=O)N[C@H](C(=O)N[C@@H](C)[C@H](O)[C@@H](C)C(=O)N[C@@H](C(=O)NCCc1nc(-c2nc(C(=O)NCCC[S+](C)C)cs2)cs1)[C@@H](C)O)C(O[C@H]1O[C@H](CO)[C@H](O)[C@@H](O)[C@H]1O[C@H]1O[C@H](CO)[C@@H](O)[C@H](OC(N)=O)[C@@H]1O)c1cnc[nH]1 (stereo not given in full)    false

The origin of these recorded values is PubChem BioAssay.
